Experiment: Solubility studies of the activators (saturated solution in isohexane or methylcyclohexane)
Type: physicochemical
Conditions: isohexane
Listing of entries alongside the reported Solubility limit in i-hexane (wt % at 25° C.).
Your answer should be a plain number; it is taken to be in wt %.

Field: example entries. Status: answers known.
mol_smiles | measurement_unit | readout_value
CCCCCCCCCC[NH+](CCCCCCCCCC)c1ccc(C)cc1.Fc1c(F)c(F)c2c(F)c([B-](c3c(F)c(F)c4c(F)c(F)c(F)c(F)c4c3F)(c3c(F)c(F)c4c(F)c(F)c(F)c(F)c4c3F)c3c(F)c(F)c4c(F)c(F)c(F)c(F)c4c3F)c(F)c(F)c2c1F | wt % | 0.35
CCCCCCCCCCCCCCCCCCc1ccc([NH+](C)C)cc1.Fc1c(F)c(F)c([B-](c2c(F)c(F)c(F)c(F)c2F)(c2c(F)c(F)c(F)c(F)c2F)c2c(F)c(F)c(F)c(F)c2F)c(F)c1F | wt % | 0.10

Query :: Quote Solubility limit in i-hexane (wt % at 25° C.) reported for CCCCCCCCCCCCCCCCCC[NH+](CCCCCCCCCCCCCCCCCC)c1ccccc1C(C)C.Fc1c(F)c(F)c2c(F)c([B-](c3c(F)c(F)c4c(F)c(F)c(F)c(F)c4c3F)(c3c(F)c(F)c4c(F)c(F)c(F)c(F)c4c3F)c3c(F)c(F)c4c(F)c(F)c(F)c(F)c4c3F)c(F)c(F)c2c1F please.
Result :: 1.9

###

Listing of entries alongside the reported Solubility limit in i-hexane (wt % at 25° C.).
Assay: Solubility studies of the activators (saturated solution in isohexane or methylcyclohexane)
Format: physicochemical
Settings: isohexane
Your answer should be a plain number; it is taken to be in wt %.

compound | readout_value
CCCCCCCCCCCCCCCCCC[NH+](CCCCCCCCCCCCCCCCCC)c1ccc(C)cc1.Fc1c(F)c(F)c2c(F)c([B-](c3c(F)c(F)c4c(F)c(F)c(F)c(F)c4c3F)(c3c(F)c(F)c4c(F)c(F)c(F)c(F)c4c3F)c3c(F)c(F)c4c(F)c(F)c(F)c(F)c4c3F)c(F)c(F)c2c1F [DOdTH-BF28] | 29

Turning now to a further record.
Query :: Quote Solubility limit in i-hexane (wt % at 25° C.) reported for CCCCCCCCCC[NH+](C)c1ccccc1.Fc1c(F)c(F)c([B-](c2c(F)c(F)c(F)c(F)c2F)(c2c(F)c(F)c(F)c(F)c2F)c2c(F)c(F)c(F)c(F)c2F)c(F)c1F [MDAH-BF20, N-decyl-N-methylanilinium-BF20] please.
Result :: 0.18

###

Listing of entries alongside the reported Solubility limit in MeCy (mM at 25° C.).
Test: Solubility studies of the activators (saturated solution in isohexane or methylcyclohexane)
Format: physicochemical
Conditions: methylcyclohexane
Your answer should be a plain number; it is taken to be in mM.

Field: example entries. Status: answers known.
mol_smiles | Solubility limit in MeCy (mM at 25° C.) [mM]
CCCCCCCCCCCCCCCCCC[NH+](CCCCCCCCCCCCCCCCCC)c1ccc(C)cc1.Fc1c(F)c(F)c([B-](c2c(F)c(F)c(F)c(F)c2F)(c2c(F)c(F)c(F)c(F)c2F)c2c(F)c(F)c(F)c(F)c2F)c(F)c1F | 110
CCCCCCCCCC[NH+](C)c1ccccc1.Fc1c(F)c(F)c([B-](c2c(F)c(F)c(F)c(F)c2F)(c2c(F)c(F)c(F)c(F)c2F)c2c(F)c(F)c(F)c(F)c2F)c(F)c1F | 1.4

Query :: Quote Solubility limit in MeCy (mM at 25° C.) reported for CCCCCCCCCC[NH+](CCCCCCCCCC)c1ccc(CCCC)cc1.Fc1c(F)c(F)c2c(F)c([B-](c3c(F)c(F)c4c(F)c(F)c(F)c(F)c4c3F)(c3c(F)c(F)c4c(F)c(F)c(F)c(F)c4c3F)c3c(F)c(F)c4c(F)c(F)c(F)c(F)c4c3F)c(F)c(F)c2c1F please.
Result :: 17
